inhibition at 0.1 µM reference
Biological target: human recombinant adrenergic α2A receptor (Homo sapiens, UniProt P08913)
Construct: expressed in transfected cells; host or cells: insect Sf9 cells
Sequence (P08913 whole entry): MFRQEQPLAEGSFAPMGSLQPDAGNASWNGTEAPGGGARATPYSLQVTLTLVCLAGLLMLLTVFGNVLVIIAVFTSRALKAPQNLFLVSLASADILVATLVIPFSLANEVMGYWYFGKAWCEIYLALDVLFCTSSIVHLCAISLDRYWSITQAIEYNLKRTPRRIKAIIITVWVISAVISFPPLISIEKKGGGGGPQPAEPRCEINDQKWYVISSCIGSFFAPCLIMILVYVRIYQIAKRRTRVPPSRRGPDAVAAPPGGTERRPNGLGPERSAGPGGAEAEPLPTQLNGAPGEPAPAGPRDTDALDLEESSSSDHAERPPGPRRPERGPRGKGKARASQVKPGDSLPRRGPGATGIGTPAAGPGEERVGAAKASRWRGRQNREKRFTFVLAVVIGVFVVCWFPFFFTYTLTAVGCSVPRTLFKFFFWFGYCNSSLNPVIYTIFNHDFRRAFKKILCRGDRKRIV
Assay: Radioligand binding, adrenergic α2A ([3H]MK-912)
Conditions: read-out: Percentage inhibition of ligand binding, Adrenergic α2A (0.1 μM), compound at 0.1 μM; [3H]MK-912; repeat datapoints each shown

Molecule	Result Units	inhibition at 0.1 µM
CNC(Cn1c2c(c3cc(C)ccc31)CN(C)CC2)c1ccncc1 (single isomer, unassigned) [151a]	%	15
CN1CCc2c(c3ccncc3n2CC(O)c2ccncc2)C1 (centres unmarked)	%	2
Cc1ccc(CCn2c3c(c4c(Cl)ccc(Cl)c42)CCN(C)CC3)cn1	%	47
Cc1ccc2c(c1)c1c(n2CC(CCN(C)C)c2ccncc2)CCN(C)C1 (centres unmarked)	%	3
CN1CCc2c(c3c(Cl)cccc3n2CCc2ccccc2)C1	%	58
